system: Rat hepatocyte; test: Metabolic stability assay (rat hepatocyte Clint); type: in vitro ADME; conditions: 1 μM compound, cryopreserved hepatocytes 1 million cells per mL
VALUE_KIND: Rat hepatocyte CLint (μl/min/10^−6 cells)

Worked cases, answers included:
# MOLECULE, EXPERIMENTAL_RESULT
rows = [
    ("Cc1cc2ncnn2cc1Nc1ncc2c(C)nn(C3CCC4(CC3)CC4)c2n1", 71.1),
    ("Cc1cc2ncnn2cc1Nc1ncc2c(C)nn(C3CC4(COC4)C3)c2n1", 34.2),
    ("Cc1cc2ncnn2cc1Nc1ncc2c(C)nn(C3CC4(C3)CC(F)(F)C4)c2n1", 65.5),
    ("Cc1cc2ncnn2cc1Nc1ncc2c(C)nn([C@H]3CC[C@H](F)CC3)c2n1", 14.1),
    ("Cc1cc2ncnn2cc1Nc1ncc2c(C(F)(F)F)nn(C3CCOCC3)c2n1", 7.2),
]

[P] Cc1cc2ncnn2cc1Nc1ncc2c(C)nn(C3CCOC(C)(C)C3)c2n1 (single isomer, unassigned) [Example 117]
[Q] COCCn1nc(C)c2cnc(Nc3cn4ncnc4cc3C)nc21
Please choose the item with the lower Rat hepatocyte CLint (μl/min/10^−6 cells) value from this pair: P and Q Record your answer as the label of the chosen record.
Q
(Q: 5.3 μl/min/10^−6 cells, P: 9.1 μl/min/10^−6 cells)

[1] Cc1cc2nccn2cc1Nc1ncc2c(C)nn(CC(C)C#N)c2n1 (centres unmarked)
[2] CCC(C)n1nc(C)c2cnc(Nc3cn4ncnc4cc3C)nc21 (single isomer, unassigned) [Example 61]
[3] Cc1cc2ncnn2cc1Nc1ncc2c(n1)c([C@H]1CC[C@@H](OC(F)F)CC1)nn2C
[4] CO[C@H]1CC[C@@H](c2nn(C)c3cnc(Nc4cn5ncnc5cc4C)nc32)CC1
Please put the entries in order of rising Rat hepatocyte CLint (μl/min/10^−6 cells). Write the labels, ordered according to the request.
2, 1, 4, 3

[A] Cc1cc2ncnn2cc1Nc1ncc2c(C)nn(C3CCOC(C)(C)C3)c2n1 (single isomer, unassigned) [Example 116]
[B] Cc1cc2ncnn2cc1Nc1ncc2c(C)cn(C3CCOCC3)c2n1
[C] Cc1cc2ncnn2cc1Nc1ncc2c(C)nn(C3CCCCC3)c2n1
# desc sort on Rat hepatocyte CLint (μl/min/10^−6 cells) across 3 molecules Write the labels, ordered according to the request.
C, B, A
(C: 52.0 μl/min/10^−6 cells, B: 14.6 μl/min/10^−6 cells, A: 9.6 μl/min/10^−6 cells)

---

Tested on: Rat hepatocyte
Assay: Metabolic stability assay (rat hepatocyte Clint)
Assay type: in vitro ADME
Settings: 1 μM compound, cryopreserved hepatocytes 1 million cells per mL
Procedure: Viability of cryopreserved hepatocytes was determined using trypan blue and the cell conc. was adjusted to 106 cells per mL with buffer. […] 40 μL of supernatant was diluted to 200 μL with pure water and analyzed using LC-MS/MS. In vitro hepatocyte clearance was estimated based on determination of elimination half-life (T1/2) of compounds disappearance from their initial concentrations. Peak area ratios of each compound (test or control) to IS was calculated. […]
VALUE_KIND: Rat hepatocyte CLint (μl/min/10^−6 cells)

# MOLECULE, UNIT_OF_MEASUREMENT, EXPERIMENTAL_RESULT
rows = [
    ("Cc1cc2ncnn2cc1Nc1ncc2c(C)nn(C3CCCOC3)c2n1 (single isomer, unassigned) [Example 29]", "μl/min/10^−6 cells", 13.3),
]

[I] Cc1cc2ncnn2cc1Nc1ncc2c(C)nn([C@H]3C[C@H]4CC[C@@H](C3)O4)c2n1
[II] Cc1cc2ncnn2cc1Nc1ncc2c(C)nn(C3CCCC3)c2n1
[III] Cc1cc2ncnn2cc1Nc1ncc2c(C)nn([C@H]3C[C@@H](C)C3)c2n1
Please put the entries in order of rising Rat hepatocyte CLint (μl/min/10^−6 cells). Write the labels, ordered according to the request.
I, II, III
(I: 17.6 μl/min/10^−6 cells, II: 43.3 μl/min/10^−6 cells, III: 144.4 μl/min/10^−6 cells)
